Reported half-life at 2 μM values for a set of compounds
- test-name: Liver microsomes stability, dog
- assay-setup: dog, microsomes
attribute-measured: half-life at 2 μM

smiles_code=[2H]C([2H])(c1cn(C(=O)CCCCCCC/C=C\C/C=C\CCCCC)c2ccccc12)[C@H]1CCCN1C([2H])([2H])[2H] attribute_measured="half-life at 2 μM" result="44.3 min"
smiles_code=CCCCC/C=C\C/C=C\CCCCCCCC(=O)n1cc(C[C@H]2CCCN2C)c2cc(OC)ccc21 attribute_measured="half-life at 2 μM" result="40 min"
smiles_code=CCCCC/C=C\C/C=C\CCCCCCCC(=O)n1cc(CCN(C)C)c2ccccc21 attribute_measured="half-life at 2 μM" result="73.1 min"
smiles_code=CCCCC/C=C\C/C=C\CCCCCCCC(=O)n1cc(C[C@H]2CCCN2C)c2ccccc21 attribute_measured="half-life at 2 μM" result="48.8 min"

---

Reported half-life at 2 μM values for a set of compounds
- test-name: Liver microsomes stability, mouse
- assay-setup: male, mouse, microsomes
attribute-measured: half-life at 2 μM

smiles_code=CCCCC/C=C\C/C=C\CCCCCCCC(=O)n1cc(C[C@H]2CCCN2C)c2ccccc21 attribute_measured="half-life at 2 μM" result="1.31 h"
smiles_code=[2H]C([2H])(c1cn(C(=O)CCCCCCC/C=C\C/C=C\CCCCC)c2ccccc12)[C@H]1CCCN1C([2H])([2H])[2H] attribute_measured="half-life at 2 μM" result="0.86 h"
smiles_code=CCCCC/C=C\C/C=C\CCCCCCCC(=O)n1cc(C[C@H]2CCCN2C)c2cc(OC)ccc21 attribute_measured="half-life at 2 μM" result="1.91 h"
smiles_code=CCCCC/C=C\C/C=C\CCCCCCCC(=O)n1cc(CCN(C)C)c2ccccc21 attribute_measured="half-life at 2 μM" result="14.4 h"

---

Reported Remaining Percentage (%) values for a set of compounds
- test-name: Liver microsomes stability, human
- assay-setup: Human, Without NADPH, 60 min
- Experimental: The objective of this study was to estimate in vitro metabolic stability of representative compounds of the application in pooled human and male mouse liver microsomes. The concentrations of parent compounds in reaction systems were evaluated by LC-MS/MS for estimating the stability in pooled human and male mouse liver microsomes. The in vitro intrinsic clearances of test compounds were determined as well. […] The in vitro half-life (in vitro t1/2) was determined from the slope value: […]
attribute-measured: Remaining Percentage (%)

smiles_code=CCCCC/C=C\C/C=C\CCCCCCCC(=O)n1cc(CCN(C)C)c2ccccc21 attribute_measured="Remaining Percentage (%)" unit_info=% numeric_result=100.94
smiles_code=CCCCC/C=C\C/C=C\CCCCCCCC(=O)n1cc(C[C@H]2CCCN2C)c2cc(OC)ccc21 attribute_measured="Remaining Percentage (%)" unit_info=% numeric_result=83.22
smiles_code=CCCCC/C=C\C/C=C\CCCCCCCC(=O)n1cc(C[C@H]2CCCN2C)c2ccccc21 attribute_measured="Remaining Percentage (%)" unit_info=% numeric_result=80.25
smiles_code=[2H]C([2H])(c1cn(C(=O)CCCCCCC/C=C\C/C=C\CCCCC)c2ccccc12)[C@H]1CCCN1C([2H])([2H])[2H] attribute_measured="Remaining Percentage (%)" unit_info=% numeric_result=83.75

---

- test-name: Liver microsomes stability, rat
- assay-setup: Rat, Without NADPH, 60 min
Reported Remaining Percentage (%) values for a set of compounds
attribute-measured: Remaining Percentage (%)

smiles_code=CCCCC/C=C\C/C=C\CCCCCCCC(=O)n1cc(C[C@H]2CCCN2C)c2cc(OC)ccc21 numeric_result=92.62
smiles_code=CCCCC/C=C\C/C=C\CCCCCCCC(=O)n1cc(CCN(C)C)c2ccccc21 numeric_result=109.93
smiles_code=CCCCC/C=C\C/C=C\CCCCCCCC(=O)n1cc(C[C@H]2CCCN2C)c2ccccc21 numeric_result=95.87
smiles_code=[2H]C([2H])(c1cn(C(=O)CCCCCCC/C=C\C/C=C\CCCCC)c2ccccc12)[C@H]1CCCN1C([2H])([2H])[2H] numeric_result=84.47
